src = ChEMBL document CHEMBL5352493

# experiment notes: Antiproliferative against rat HSC-T6 cells measured after 48 hrs by CCK8 assay
# Assay type: toxicity, cell-based
I'd appreciate it if you could supply IC50 at 48 h values for the items below.

Record excerpt, results attached:
Cn1nc(C(F)(F)F)c2cc(C(=O)Nc3cccc(-c4nncn4C4CCCCC4)n3)c(=O)[nH]c21 : > 80 µM
O=C(N[C@@H](COc1ccc2[nH]c(=O)[nH]c2c1)c1ccccc1)c1cccn(Cc2ccc(F)c(F)c2)c1=O : 36.2 µM
CCn1c(=O)c(C(=O)Nc2cccc(-c3nncn3C3CCCCC3)n2)cc2c(C(F)(F)F)nn(C)c21 : > 80 µM
O=C(Nc1cccc(-c2nncn2C2CC2)n1)c1cc(-c2cnn(C(F)F)c2)cn(Cc2ccccc2F)c1=O : > 80 µM

For every item below, please supply its IC50 at 48 h.
1. CC(C)n1cnnc1-c1cccc(NC(=O)c2cc3c(C(F)(F)F)nn(C)c3nc2OCc2ccccc2F)n1
2. O=C(Nc1cccc(-c2nncn2C2CC2)n1)c1cc(-c2cccc3[nH]ccc23)cn(Cc2ccccc2F)c1=O
3. O=C(Nc1cccc(-c2nncn2C2CC2)n1)c1cc(-c2cccnc2)cn(Cc2ccccc2F)c1=O
4. O=C(Nc1cccc(-c2nncn2C2CC2)n1)c1cc(-c2cnn(C3CC3)c2)cn(Cc2ccccc2F)c1=O
5. Cn1nc(C(F)(F)F)c2cc(C(=O)Nc3cccc(-c4nncn4C4CC4)n3)c(=O)[nH]c21
6. CCCCn1cnnc1-c1cccc(NC(=O)c2cc3c(C(F)(F)F)nn(C)c3[nH]c2=O)n1
7. O=C(Nc1cccc(-c2nncn2C2CC2)n1)c1cc(-c2cnc(Cl)nc2)cn(Cc2ccccc2F)c1=O

## Output
["> 80 µM", "> 80 µM", "> 80 µM", "35.5 µM", "> 80 µM", "> 80 µM", "> 80 µM"]
